# ASSAY_INFO: clinical
# Type: in vivo
# ASSAY_CONTEXT: human, plasma, oral; 90 mg bid; post dose (2 h)
MEASURE_NAME: concentration at 2 h (ng/mL)
One number for each entry, in ng/mL.

For `CCCSc1nc(N[C@@H]2C[C@H]2c2ccc(F)c(F)c2)c2nnn([C@@H]3C[C@H](OCCO)[C@@H](O)[C@H]3O)c2n1` the compound record lists concentration at 2 h as 717
